Parameter MFI: see the listing below.
molecular target: T1, human TMEM106B (human, UniProt Q9NUM4 2-274); assay: FACS U251
T1 construct: full-length, transiently expressed on HEK293 cells, or natively expressed on HeLa, U251 and A549 cells (the cell is named under assay); also the source of the Pepscan peptides; also called huTMEM106B; huTMEM
Answer in MFI, number only, no unit symbol.

Example entries begin here.
| Binder | Measured Value |
| --- | --- |
| TM-45 (antibody, V domains shown) VH: QVQLQQSGAELAKPGASVKLSCKASGYTFTNYWMHWVKKRPGQGLEWIGYINPSSGYTKYNQKFKDKATLTADKSSNTAYMQLSSLTYEDSAVYYCTREGGSISDWYFDVWGTGTTVTVSS VL: DIVMTQAAPSLPVTPGESVSISCRSSKSLLHSNGNTYLYWFLQRPGQSPQLLIYRMSNLASGVPDRFSGSGSGTAFTLRISRVEAEDVGVYYCMQHLEYPYTFGGGTKLEIK | 517 |
| TM-11 (antibody, V domains shown) VH: QVQLKQSGPGQVQPSQSLSITCTVSGFSLSDYGVHWVRQSPGKGLEWLGVIWNNGNTDYNAAFISRLSINKDNSKSQVFFKMTSLQADDTAIYYCVRSLRPLHFDYWGQGTTVTVSS VL: DIVMTQSPSSLTMSVGQKVTMHCKSSQSLLNSNNLQNYLAWYQQKPGQSPTLLVYFASIRESGVPDRFIGSGSGTDFTLTISSVQAEDLADYFCQQHYNTPFTFGSGTKLEIR | 866 |

Now, please, on to the next binder.
Exercise: Entry under review: TM-1 (antibody, V domains shown) VH: QVQLQQSGAELVRPGTSVKVSCKASGYAFTNYLIEWVKQRPGQGLEWIGVINPGSGGTKYNEKLKGKATLTADKSSSTAYMQLSSLTSVDSAVYFCARRGYTIYDFYAMDYWGQGTSVTVSS VL: DVLMTQTPLSLPVSLGDHASISCRSSQSIVYNNGNTYLEWYLQKPGQSPKLLIYKVSNRFSGVPDRFSGSGSGTDFTLKISRVEAEDLGVYYCFQVSHVPFTFGSGTKLEIK . Reported MFI?
Solution: 244
